- System Under Test: T1, recombinant human ROR1-His (Sino Biological, 13968-H08H) (human, UniProt Q01973 30-406)
- T1 construct: extracellular domain; Bought protein; also called ROR1-HIS protein; not shown: His tag
- T1 sequence (Q01973 30-406): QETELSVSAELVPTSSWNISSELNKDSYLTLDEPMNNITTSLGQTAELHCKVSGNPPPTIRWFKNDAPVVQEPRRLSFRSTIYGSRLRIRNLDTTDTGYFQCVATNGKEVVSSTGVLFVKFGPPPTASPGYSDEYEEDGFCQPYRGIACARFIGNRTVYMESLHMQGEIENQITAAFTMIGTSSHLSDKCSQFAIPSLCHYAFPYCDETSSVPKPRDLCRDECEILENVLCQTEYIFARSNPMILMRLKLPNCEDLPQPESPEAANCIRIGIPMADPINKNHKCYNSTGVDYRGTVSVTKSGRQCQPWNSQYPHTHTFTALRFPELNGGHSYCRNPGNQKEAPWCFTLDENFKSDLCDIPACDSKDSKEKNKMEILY
- Assay Details: ELISA, wells coated with human ROR1 protein (sheet: 'human ROR1'; text: ROR1-Fc or ROR1-His), IgG titrated, HRP anti-Fab detection, OD (450-650nm)
Would you mind telling me the reported EC50 (read off the curve) of each entry?

Form field EC50 (read off the curve), entry anti-ROR1 IgG antibody BA6 (antibody, V domains shown, Full IgG form (human IgG1 constant region, lambda light chain), expressed in CHO-S cells) VH: EVQLLESGGGLVQPGGSLRLSCAASGFTFSNYDMSWVRQAPGKGLEWVSAIYHSGSSKYYADSVKGRFTISRDNSKNTLYLQMNSLRAEDTAVYYCARGGNGAWDTGFDYWGQGTLVTVSS VL: QSVLTQPPSASGTPGQRVTISCSGSSSNIGSNDVSWYQQLPGTAPKLLIYYDNNRPSGVPDRFSGSKSGTSASLAISGLRSEDEADYYCGAWDDSLSGYVFGGGTKLTVLG : ~0.2 nM

Form field EC50 (read off the curve), entry anti-ROR1 IgG antibody C2E3 (antibody, V domains shown, Full IgG form (human IgG1 constant region, lambda light chain), expressed in CHO-S cells) VH: EVQLLESGGGLVQPGGSLRLSCAASGFTFSNYAMSWVRQAPGKGLEWVSSISHNSGSTYYADSVKGRFTISRDNSKNTLYLQMNSLRAEDTAVYYCAKFISARKSLGRSYSNGMDVWGQGTLVTVSS VL: QSVLTQPPSASGTPGQRVTISCTGSSSNIGSNDVTWYQQLPGTAPKLLIYADSKRPSGVPDRFSGSKSGTSASLAISGLRSEDEADYYCGTWDYSLSGYVFGGGTKLTVLG : ~0.2 nM

Form field EC50 (read off the curve), entry anti-ROR1 IgG antibody CC9 (antibody, V domains shown, Full IgG form (human IgG1 constant region, lambda light chain), expressed in CHO-S cells) VH: EVQLLESGGGLVQPGGSLRLSCAASGFTFSSYDMSWVRQAPGKGLEWVSGISHGSGNKYYADSVKGRFTISRDNSKNTLYLQMNSLRAEDTAVYYCAKRLSLRRRPSYYSDNAMDVWGQGTLVTVSS VL: QSVLTQPPSASGTPGQRVTISCTGSSSNIGNNAVNWYQQLPGTAPKLLIYYDSNRPSGVPDRFSGSKSGTSASLAISGLRSEDEADYYCGAWDDSLSGYVFGGGTKLTVLG : ~0.3 nM
